A compilation of published Ki results with Alpha-1B adrenergic receptor (Homo sapiens).
Category scheme (Ki): L (below 30 nM), M (30 nM to below 200 nM), H (200 nM or more)

The examples below pair each entry with its known result.
COc1ccccc1N1CCN(CC2COCC(c3ccccc3)(c3ccccc3)O2)CC1 (configuration not stated) ... L
CS(=O)(=O)c1ccc(C(F)(F)F)cc1NCC1=NCCN1 ... H
COc1ccccc1OCCNCC1CSC(c2ccccc2)(c2ccccc2)O1 (racemic) ... M

Moving on to the next compound.
Prompt: Which band does c1ccc(OCCNCC2OCCOC2(c2ccccc2)c2ccccc2)cc1 (configuration not stated) fall in?
Completion: H

* * *

A compilation of published Ki results with Alpha-1B adrenergic receptor (Homo sapiens, UniProt P35368).
Sequence (P35368 whole entry): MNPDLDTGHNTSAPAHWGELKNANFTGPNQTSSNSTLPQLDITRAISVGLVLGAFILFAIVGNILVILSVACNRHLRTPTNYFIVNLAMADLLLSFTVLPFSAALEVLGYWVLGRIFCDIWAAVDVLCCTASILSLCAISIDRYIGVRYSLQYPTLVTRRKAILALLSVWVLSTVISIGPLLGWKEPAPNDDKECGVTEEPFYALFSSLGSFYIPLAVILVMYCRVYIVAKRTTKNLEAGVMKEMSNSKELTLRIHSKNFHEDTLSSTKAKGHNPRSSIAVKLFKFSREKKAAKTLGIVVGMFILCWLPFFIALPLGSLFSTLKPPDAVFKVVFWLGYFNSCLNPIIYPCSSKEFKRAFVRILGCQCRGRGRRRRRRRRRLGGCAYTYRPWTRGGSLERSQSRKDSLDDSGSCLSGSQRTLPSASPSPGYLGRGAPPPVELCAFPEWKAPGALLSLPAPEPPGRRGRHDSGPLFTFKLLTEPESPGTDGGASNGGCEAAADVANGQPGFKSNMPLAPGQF
Answers are plain numbers, in µM.

COc1cc2nc(N3CCN(C(=O)c4ccc(Br)o4)[C@H]4CCCC[C@H]43)nc(N)c2cc1OC ... 0.000309

# batch: return Ki for each of the 2 compounds below
1. COc1ccc(NS(=O)(=O)c2sc3ccc(Cl)cc3c2C)cc1N1CCN2CCCCC2C1 (stereo unspecified)
2. COc1ccccc1OCCNCC1CSC(c2ccccc2)(c2ccccc2)S1 (racemic)

Completion:
1. 2
2. 0.117

# batch: return Ki for each of the 8 compounds below
1. COC(=O)C1=C(C)NC(=O)N(C(=O)NCCCN2CCC(c3cc(C)cc(C)c3)(c3cc(C)cc(C)c3)CC2)C1c1ccc(F)c(F)c1 (stereo unspecified)
2. O=S(=O)(c1ccc2cc[nH]c2c1)N1CCC[C@@H]1CCN1CCC(n2c(O)nc3ccccc32)CC1
3. O=C(c1ccc(Cl)cc1)C1CCN(CC[C@H]2CCCN2S(=O)(=O)c2ccc3cc[nH]c3c2)CC1
4. COc1c(OCCF)cccc1C(=O)C1CCN(CCc2ccc(F)cc2)CC1
5. COc1cc2nc(N3CCN(C(=O)c4ccc(C(C)=O)o4)[C@H]4CCCC[C@H]43)nc(N)c2cc1OC
6. COc1ccccc1N1CCN(CCn2c(=O)[nH]c3c(sc4ccc(NC(=O)c5ccccc5)cc43)c2=O)CC1
7. COc1cc2nc(N3CCN(C(=O)C4COc5ccccc5O4)[C@H]4CCCC[C@@H]43)nc(N)c2cc1OC (relative stereo)
8. COc1ccccc1N1CCN(CCn2c(=O)[nH]c3scc(-c4cccc(C)c4)c3c2=O)CC1

Completion:
1. 0.86
2. 0.0437
3. 0.0933
4. 0.55
5. 0.00138
6. 0.01
7. 0.0224
8. 0.00909

# batch: return Ki for each of the 5 compounds below
1. O=C(CCCN1CCC(NC(=O)c2ccccc2)CC1)c1ccccc1
2. COc1ccccc1N1CCN(CCN(C(=O)C23CCC(CF)(CC2)CC3)c2ccccn2)CC1
3. Cc1ccc2c(OCCN3CCN(Cc4cccc5cccnc45)CC3)cccc2n1
4. Cc1ccc(C(C(=O)NCCCN2CCN(c3ccccc3)CC2)c2ccc(C)cc2)cc1
5. COc1ccccc1N1CCN(CCCNc2cc(-c3ccccc3)nn(C)c2=O)CC1

Completion:
0.2
0.11
1
0.023
0.00551

* * *

A compilation of published pKi results with Alpha-1B adrenergic receptor (Homo sapiens, UniProt P35368).
One number for each entry, as −log10 of the molar value.

See these solved cases before continuing.
COc1cccc(C)c1OCCNCCOc1ccccc1OCc1ccccc1 ... 8.30
CO/C(O)=C1\C(C)=NC(C)=C(C(=O)NCCCN2CCC(c3ccccc3)(c3ccccc3)CC2)C1c1ccc(C)cc1 (stereo unspecified) ... 6.57
Cc1ccc(C(C(=O)NCCCN2CCC(c3ccccn3)CC2)c2ccc(C)cc2)cc1 ... 6.17
COc1ccc2ccoc2c1OCCNC[C@H]1COc2ccccc2O1.Cl ... 7.54
CCC1=NC(CC)=C(C(=O)NCCCN2CCC(c3ccccc3)(c3ccccc3)CC2)C(c2ccc([N+](=O)[O-])cc2)/C1=C(\O)OC (stereo unspecified) ... 6.55
COc1ccccc1N1CCN(C[C@@H]2CO[C@@](CN3CCCCC3=O)(c3ccccc3)O2)CC1 (relative stereo) ... 7.29
COc1ccc(CCN2CCC(c3nc(COCC(F)(F)F)c(-c4ccc(F)cc4)o3)CC2)cc1S(N)(=O)=O ... 7.80
COc1cc2nc(N3CCC[C@H](N)C3)nc(N)c2cc1OC ... 7.26

# batch: return pKi for each of the 3 compounds below
1. COc1ccccc1N1CCN(CCN(C(=O)C23CCC(CF)(CC2)C3)c2ccccn2)CC1
2. CCN(CC)c1ccc2cc(-n3cc(CN4CCN(c5nc(N)c6cc(OC)c(OC)cc6n5)CC4)nn3)c(=O)oc2c1
3. COc1ccccc1N1CCN(Cc2ccc(CO)s2)CC1

Completion:
7.42
7.52
5.97

* * *

A compilation of published Ki results with Alpha-1B adrenergic receptor (Homo sapiens, UniProt P35368).
Numbers only, in nM.

See these solved cases before continuing.
COc1cc2nc(N3CCN(C(=O)c4ccc[nH]4)[C@H]4CCCC[C@H]43)nc(N)c2cc1OC ... 3.16
CC(C)Oc1ccccc1N1CCN(CCCNC(=O)CN2CCCCC2=O)CC1 ... 10000

# batch: return Ki for each of the 4 compounds below
1. COCC1=C(C(=O)OC)C(c2ccc(F)c(F)c2)N(C(=O)NCCCN2CCC(C#N)(c3ccccc3)CC2)C(=O)N1 (stereo unspecified)
2. CO/C(O)=C1\C(C)=NC(C)=C(C(=O)NCCCN2CCC(c3ccccc3)(c3ccccc3)CC2)C1c1ccc(C#N)cc1 (stereo unspecified)
3. O=C1CC2(CCCC2)CC(=O)N1CCN1CCN(c2ccccc2F)CC1
4. COc1ccc(Cl)cc1N1CCN(CCn2c(C)nc3c([nH]c4ccccc43)c2=O)CC1

Completion:
130
151
67
4.47

# batch: return Ki for each of the 7 compounds below
1. COc1ccccc1N1CCN(CCN2C(=O)CC3(CCCC3)CC2=O)CC1
2. COc1ccc(NS(=O)(=O)c2sc3ccc(Cl)cc3c2C)cc1N1CCN2CCC[C@H]2C1
3. CCCO[C@H]1c2ccccc2[C@H]2C[C@]21c1cnc[nH]1 (relative stereo)
4. c1ccc(OCCNCCOC(c2ccccc2)c2ccccc2)cc1
5. Cc1ccc2c(OCCN3CCC(Cc4cc(F)c5c(c4)NC(=O)CO5)CC3)cc(Cl)cc2n1
6. c1ccc2c(c1)[C@H]1C[C@@]1(c1c[nH]cn1)C21CC1 (stereo in doubt; (+)-10)
7. COc1cccc(OC)c1CCCNCCOc1ccccc1OCc1ccccc1

Completion:
94.3
1580
11.5
25.1
1580
18.2
6.92

# batch: return Ki for each of the 8 compounds below
1. COCC1=C(C(=O)OC)[C@H](c2ccc(F)c(F)c2)N(C(=O)N[C@@H]2CC[C@H](N3CCC(c4ccccc4C#N)CC3)C2)C(=O)N1
2. CN(CC1CCCCC1)[C@H]1C2C3CC4C5C3CC2C5C41 (stereo partly specified)
3. CC(=O)c1c(-c2ccccc2)nn(C)c(=O)c1NCCN1CCN(c2ccccc2Cl)CC1
4. CC(C)Oc1ccccc1N1CCN(Cc2cc(CN3CCCCCC3=O)cs2)CC1
5. Cl.Cn1c(=O)[nH]c2c([nH]c(=O)n2C)c1=N
6. COc1ccccc1N1CCN(CCCNC(=O)CN2CCCCC2=O)CC1
7. COCC1=C(C(=O)OC)[C@H](c2ccc(F)c(F)c2)N(C(=O)N[C@@H]2CC[C@H](N3CCC(C#N)(c4ccccc4)CC3)C2)C(=O)N1
8. c1ccc(OCCNCC[C@@H]2CO[C@H](C(c3ccccc3)c3ccccc3)O2)cc1 (relative stereo)

Completion:
130
9.4
0.75
615
758
10000
1900
107

# batch: return Ki for each of the 4 compounds below
1. CS(=O)(=O)Nc1ccc(F)c([C@@H](O)CN)c1
2. CC(C)Oc1ccccc1N1CCN(C2CCC(N3C(=O)c4ccc5ccc(F)cc5c4C3=O)CC2)CC1 (stereo in doubt; 6g)
3. CCO[C@H]1c2ccccc2[C@H]2C[C@]21c1c[nH]cn1 (relative stereo)
4. CC(C)Oc1ccccc1N1CCN(CC(O)CNC(=O)c2ccc3c(c2)C(=O)N(c2cccc(Cl)c2)C3=O)CC1 (stereo unspecified)

Completion:
1. 11200
2. 46.5
3. 39.8
4. 605

* * *

A compilation of published Ki results with Alpha-1B adrenergic receptor (Homo sapiens).

C[C@H]1c2ccccc2[C@H]2C[C@]21c1cnc[nH]1 (relative stereo) ... 6.17 nM

# batch: return Ki for each of the 4 molecules below
1. COc1ccc(COc2ccccc2OCCNCCOc2c(OC)cccc2OC)cc1
2. COc1cccc(OC)c1OCCNC[C@@H]1CO[C@@H](c2ccccc2)CO1 (relative stereo)
3. COc1ccc2cc[nH]c2c1OCCNC[C@H]1COc2ccccc2O1
4. COc1c(OCCF)cccc1C(O)C1CCN(CCc2ccc(F)cc2)CC1 (stereo not given)

Completion:
["0.398 nM", "> 1000 nM", "490 nM", "325 nM"]
